Recorded growth by entry
System: OVCAR-4 ovarian
protocol.notes: NCI-60 one-dose screen, 48 h (100 = growth as untreated, 0 = no growth, -100 = all killed)
details: 10 µM unless noted
The panel holds about 83,000 compounds, 20% with a hit somewhere; the sample as a whole holds those more often.
readout.type: growth (%)

compound: CCCCOC(N)=O
number: 106

compound: CC[C@H](C)[C@H](NC(=O)CN(C)C)C(=O)N(C)[C@H](C[C@@H](OC(C)=O)c1nc(C(=O)NC23C4C5C2C2C3C4C52C(=O)OC)cs1)C(C)C (stereo partly specified)
number: 48.7

compound: C[C@]12CCc3sc(Nc4ccc(O)cc4)nc3C1=CC[C@@H]1[C@@H]2CC[C@]2(C)C(=O)CC[C@@H]12
number: 57.1

compound: C[C@]12C[C@H](c3ccoc3)OC(=O)[C@H]1CC[C@@]1(C)[C@@H]2[C@H]2C=C[C@]1(O)C(=O)O2
number: 93.7

compound: N#CC(N)c1ccccc1 (stereo unspecified)
number: 110

compound: CC[C@H](C)[C@H](NC(=O)c1ncccn1)C(=O)N(C)[C@H](C[C@@H](OC(C)=O)c1nc(C(=O)N[C@@H](Cc2ccccc2)C[C@H](C)C(=O)OC)cs1)C(C)C
number: 50.6

All values here come from PubChem BioAssay (NCI).
